Assay: reversal of MRP1-mediated doxorubicin resistance, pilot screen, H69AR cells, doxorubicin co-treatment (AID 601)
Details: H69AR cells + 2 uM doxorubicin, CellTiter-Glo, 72 h; measured here: viability with 2 uM doxorubicin; at 10 µM; stronger effect = lower value
observable: viability (%)

>  <molecule>
C=C(c1cccc2ccccc12)P(=O)(O)O

>  <measured-result>
86.5

$$$$
>  <molecule>
COc1ccc(CC(=O)Nc2ccc(-c3nnc(-c4ccc(C)cc4)o3)cc2)cc1

>  <measured-result>
4.76

$$$$
>  <molecule>
Cc1nnc(SCC(=O)N2CC(=O)Nc3ccccc32)n1-c1ccccc1

>  <measured-result>
94.3

$$$$
>  <molecule>
CS(=O)(=O)Nc1ccc(C(=O)NCCc2ccccc2)cc1

>  <measured-result>
85.4

$$$$
>  <molecule>
COc1ccc(C(C)=O)c(OC(=O)c2ccc(OC)c(OC)c2)c1

>  <measured-result>
97.5

$$$$
>  <molecule>
Cc1cc(C)n(-c2nnc(C)n2/N=C/c2ccco2)n1

>  <measured-result>
91

$$$$
>  <molecule>
C=CCOc1ccccc1/C=c1\sc2nc(=O)c(C)nn2c1=O

>  <measured-result>
83.1

$$$$
>  <molecule>
O=C(NCCc1c[nH]c2ccccc12)c1ccc(S(=O)(=O)NCc2ccco2)cc1

>  <measured-result>
77.5

$$$$
>  <molecule>
CCSc1nnc(NC(=O)C2CCCN(S(=O)(=O)c3cnc[nH]3)C2)s1 (stereo not drawn)

>  <measured-result>
89.4

$$$$
>  <molecule>
O=C(O)CCCCCNc1nc(=S)[nH]c2ccccc12

>  <measured-result>
79

$$$$
>  <molecule>
O=C(O)c1oc2ccccc2c1-n1cccc1

>  <measured-result>
97.8

$$$$
>  <molecule>
COc1ccc(Oc2nc(Oc3ccc(OC)cc3)nc(Oc3ccc(OC)cc3)n2)cc1

>  <measured-result>
87.7

$$$$
>  <molecule>
CCC(C)NC(=O)c1cc(-c2ccc(OC)cc2)on1 (stereo not drawn)

>  <measured-result>
89.3

$$$$
>  <molecule>
c1coc(-c2nnc(NC3=NCCC3)o2)c1

>  <measured-result>
87.3

$$$$
>  <molecule>
CCOCCCNC(=O)c1c[nH]c2ccc(S(=O)(=O)Nc3cccc(OC)c3)cc2c1=O

>  <measured-result>
93.3

$$$$
>  <molecule>
CCCCN(CCCC)C(=O)CN(C)S(=O)(=O)c1ccc2c(c1)n(C)c(=O)c(=O)n2C

>  <measured-result>
92.7

$$$$
>  <molecule>
Cc1cccc(C)c1NC(=O)C1CCCCN1C (stereo not drawn)

>  <measured-result>
87.7

$$$$
>  <molecule>
CCS(=O)(=O)CCn1c([N+](=O)[O-])cnc1C

>  <measured-result>
90.9

$$$$
>  <molecule>
COCCNc1nc(C(C)(C)C)nc2c1nnn2Cc1ccccc1Cl

>  <measured-result>
94.4

$$$$
>  <molecule>
O=C(COc1nnc2ccccn12)N1CCN(S(=O)(=O)c2ccccc2)CC1

>  <measured-result>
84

$$$$
>  <molecule>
CC(=O)O[C@]1(C(C)=O)CC[C@H]2[C@@H]3C=C(C)C4=CC(=O)CC[C@]4(C)[C@H]3CC[C@@]21C

>  <measured-result>
64.3

$$$$
>  <molecule>
COc1ccc2c(CC(=O)Nc3nnc(C4CC4)s3)coc2c1

>  <measured-result>
94.1

$$$$
>  <molecule>
O=C(CSc1nnc2ccccn12)NCCN1C(=O)CSC1=O

>  <measured-result>
93.6

$$$$

====

As shown below, each of these compounds has a reported inhibition value.
Assay: inhibitors of the yeast RAM network, pilot screen, dse1pr::URA3 reporter, 5-FOA selection (AID 869);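 note: 0% = DMSO wells with no growth and 100% = 10 µM 1-NA-PP1 with full growth; RAM network block rescues cells from 5-FOA so hits raise OD615 growth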
Details: S. cerevisiae dse1pr::URA3 5-FOA growth, OD615, 2 d; at 10 µM; stronger effect = higher value; strain carries analog-sensitive mutant Cbk1 kinase
observable: inhibition (%)

>  <compound>
CCC(=O)NC(C)c1nc2ccccc2n1C (configuration not stated)

>  <u>
%

>  <measured-result>
1.37

$$$$
>  <compound>
COc1ccc(C2=NOC(C(=O)Nc3cc(C)nn3-c3ccccc3)C2)cc1OC (configuration not stated)

>  <u>
%

>  <measured-result>
1.11

$$$$
>  <compound>
O=C(O)c1ccc2c(c1)N(Cc1cccc(F)c1)C(=O)CS2

>  <u>
%

>  <measured-result>
0.2

$$$$
>  <compound>
Cc1ccc2c(CC(=O)O)coc2c1

>  <u>
%

>  <measured-result>
-0.825

$$$$
>  <compound>
CCN1CCN(C(=O)C2CCN(S(=O)(=O)c3cccc4cccnc34)CC2)CC1

>  <u>
%

>  <measured-result>
2.33

$$$$
>  <compound>
CN(c1nnc(N)s1)C1CCCCC1

>  <u>
%

>  <measured-result>
2.38

$$$$
>  <compound>
O=C(Nc1ccccc1)N(CCc1ccncc1)C1CCCCC1

>  <u>
%

>  <measured-result>
1.18

$$$$
>  <compound>
CCc1noc2c1/C(=N\O)CC(c1ccccc1)C2 (configuration not stated)

>  <u>
%

>  <measured-result>
1.78

$$$$
>  <compound>
CCC(=O)c1cc(F)c(N2CCN(S(=O)(=O)c3ccccc3)CC2)cc1C

>  <u>
%

>  <measured-result>
0.65

$$$$
>  <compound>
COc1ccccc1N1CCN(CC(=O)Nc2cc(C)nn2-c2nc(C)cc(C)n2)CC1

>  <u>
%

>  <measured-result>
1.77

$$$$
>  <compound>
O=C(COc1cccc2ccccc12)N1CCN(c2ccccc2)CC1

>  <u>
%

>  <measured-result>
2.06

$$$$
>  <compound>
O=C(C1=C(O)C(=O)N(CCc2ccccc2)C1c1cccnc1)c1ccco1 (configuration not stated)

>  <u>
%

>  <measured-result>
2.01

$$$$

====

Readings of viability for the listed compounds
Assay: reversal of MRP1-mediated doxorubicin resistance, pilot screen, H69AR cells, doxorubicin co-treatment (AID 601)
Details: H69AR cells, CellTiter-Glo, 72 h; compound alone cytotoxicity; at 10 µM

>  <compound>
COCCN1C(=O)c2oc3c(C)cc(C)cc3c(=O)c2C1c1cccc(O)c1 (stereo not given)

>  <viability [%]>
88.1

$$$$
>  <compound>
CCOC(=O)c1cc(C)sc1N1C(=O)C2C3C=CC(C3)C2C1=O (stereo not given)

>  <viability [%]>
98.7

$$$$
>  <compound>
COc1cc(OC)c(C2N(C)c3ccccc3N2C)cc1OC

>  <viability [%]>
107

$$$$
>  <compound>
CC(=O)Nc1ccc(S(=O)(=O)N2CCC(NC(C)=O)(c3cccc(F)c3)CC2)cc1

>  <viability [%]>
104

$$$$
>  <compound>
COc1cccc(-c2noc(C3CCCN(C(=O)Cc4ccccc4)C3)n2)c1 (stereo not given)

>  <viability [%]>
85

$$$$

====

Quick reference for viability among some molecules
Test: growth suppression of beta-catenin knockout HCT116, pilot screen, human colon tumor cells (AID 823);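 note: 0% = wells killed by 20 µM Hyamine and 100% = untreated DMSO cell wells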
Conditions: CellTiter-Glo, 60 h, at 10 µM, stronger effect = lower value
Results filed as inconclusive are left out. Active and inactive are the calls of the source.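 How the source made its calls: active means cell viability at or below a set limit in both duplicate runs, the limit being the all-compound median minus 4 SD (cut at about 23% in these data, passing the limit was not always enough); inconclusive means no clear call, values can overlap the other calls; inactive means the rest.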

>  <molecule>
CC(=O)Nc1ccc(S(=O)(=O)c2ccc(N)cc2)cc1N

>  <viability>
104% (inactive)

$$$$
>  <molecule>
CC1(C)Cc2c(sc3c2c(=N)n(Cc2ccco2)c(=O)n3Cc2ccc(F)cc2)CO1

>  <viability>
56.5% (inactive)

$$$$
>  <molecule>
COc1cccc(CNC(=O)C2CCN(S(=O)(=O)c3cccc4cccnc34)CC2)c1

>  <viability>
100% (inactive)

$$$$
>  <molecule>
Cn1c(C(=O)N2CCN(C(=O)c3ccco3)CC2)cc2c(=O)n(C)c3ccccc3c21

>  <viability>
92.9% (inactive)

$$$$
>  <molecule>
CCc1ccccc1NC(=O)c1cc(-c2cccc(O)c2)on1

>  <viability>
98% (inactive)

$$$$
>  <molecule>
COc1cc(C(=O)Nc2cc(C)c(OCC(=O)N3CCOCC3)c(C)c2)cc(OC)c1OC

>  <viability>
88.8% (inactive)

$$$$
>  <molecule>
Cc1cccc(NC(=O)C2CCN(S(=O)(=O)c3cccc4cccnc34)CC2)n1

>  <viability>
87.2% (inactive)

$$$$
>  <molecule>
CN1CCN(c2nc3c(c(=O)n(C)c(=O)n3C)n2CCSc2nc3ccccc3s2)CC1

>  <viability>
100% (inactive)

$$$$
>  <molecule>
CCC1(C)Cc2c(sc3c2c2ncnn2c2nnc(SCC(=O)NCc4ccco4)n32)CO1 (stereo not given)

>  <viability>
58.1% (inactive)

$$$$
>  <molecule>
Cc1ccc(O)c(NC(=O)CCC2CCCCC2)c1

>  <viability>
89.4% (inactive)

$$$$
>  <molecule>
COc1cccc(C2CC(=O)N3CN(c4ccccc4F)CSC3=C2C#N)c1 (stereo not given)

>  <viability>
102% (inactive)

$$$$
>  <molecule>
COc1ccc(Cl)cc1C(=O)Nc1cc(=O)n(C)c(=O)n1C

>  <viability>
102% (inactive)

$$$$
>  <molecule>
O=C1c2ccccc2NC(c2ccccc2)N1c1ccc(O)cc1 (stereo not given)

>  <viability>
87.1% (inactive)

$$$$
>  <molecule>
Cc1ccc(C(=O)c2cn[nH]c2-c2cc(Cl)ccc2O)cc1

>  <viability>
95.7% (inactive)

$$$$
>  <molecule>
COc1ccc(OC)c(-c2nnc(NC(=O)C(C)Sc3nncn3C)s2)c1 (stereo not given)

>  <viability>
106% (inactive)

$$$$
>  <molecule>
CCOc1ccc(-c2noc(CCC(=O)O)n2)cc1

>  <viability>
102% (inactive)

$$$$
>  <molecule>
CCOC(=O)C1Cc2ccccc2C(=O)O1 (stereo not given)

>  <viability>
96.4% (inactive)

$$$$
>  <molecule>
CCNC(=O)CN(Cc1ccccc1)S(=O)(=O)c1ccccc1

>  <viability>
89.3% (inactive)

$$$$
>  <molecule>
CCOc1ccc2[nH]c(C)c(CN3CCOCC3)c(=O)c2c1

>  <viability>
96.5% (inactive)

$$$$
>  <molecule>
Cc1csc(NC(=O)CSc2nnc(Cc3cccn3C)n2CCc2ccccc2)n1

>  <viability>
87.1% (inactive)

$$$$
>  <molecule>
CN(c1nnc(N)s1)C1CCCCC1

>  <viability>
104% (inactive)

$$$$
>  <molecule>
O=C(CCS(=O)(=O)c1ccccc1)Nc1nc2c(s1)COc1ccccc1-2

>  <viability>
5.88% (active)

$$$$
>  <molecule>
Cc1ccc(C)c(S(=O)(=O)Nc2ccccc2C(=O)Nc2cc(C)on2)c1

>  <viability>
77.3% (inactive)

$$$$
>  <molecule>
O=C1C2CCCN2C(c2ccc(Br)cc2)N1c1ccc(F)cc1 (stereo not given)

>  <viability>
94.2% (inactive)

$$$$
>  <molecule>
Cc1ccc(S(=O)(=O)/N=C(/Nc2nc(C)cc(C)n2)N2CCOCC2)cc1

>  <viability>
98.7% (inactive)

$$$$
>  <molecule>
c1ccc(-c2nnc(SCc3nc4ccccc4[nH]3)n2Cc2ccco2)nc1

>  <viability>
90.3% (inactive)

$$$$
>  <molecule>
CCn1c(CCCNC(=O)c2cccs2)nc2ccccc21

>  <viability>
104% (inactive)

$$$$
>  <molecule>
O=C(NCc1ccco1)C1c2ccccc2Oc2ccccc21

>  <viability>
83.8% (inactive)

$$$$
>  <molecule>
CC(=O)c1cc(CN2C(=O)CCC2=O)cs1

>  <viability>
94.1% (inactive)

$$$$
>  <molecule>
Cc1cccn2cc(CCNC(=O)c3ccc(Br)o3)nc12

>  <viability>
99% (inactive)

$$$$
>  <molecule>
O=C(C1CCN(S(=O)(=O)c2cccc3cccnc23)CC1)N1CCCC1

>  <viability>
97% (inactive)

$$$$
>  <molecule>
CCOC(=O)COc1cccc2c(=O)n(CC(=O)N3CCc4ccccc43)ccc12

>  <viability>
98.6% (inactive)

$$$$
>  <molecule>
c1coc(Cn2c(SCc3nc4ccccc4[nH]3)nnc2-c2cccs2)c1

>  <viability>
93% (inactive)

$$$$
>  <molecule>
Cc1ccc2c(c1)-c1c(cnn1CC(=O)N1CCCN(Cc3ccccc3F)C1)CO2

>  <viability>
88.9% (inactive)

$$$$
>  <molecule>
C=C(C)CSc1nc2c(c(=O)[nH]c(=O)n2C)n1CCC(C)C

>  <viability>
80.8% (inactive)

$$$$
>  <molecule>
COC(=O)c1ccc(N2C(=O)CC(Sc3n[nH]c(C)n3)C2=O)cc1 (stereo not given)

>  <viability>
96.6% (inactive)

$$$$
>  <molecule>
CCN(CC)CCOc1ccc(Br)cc1

>  <viability>
90.1% (inactive)

$$$$
>  <molecule>
CCOC(=O)/C=C1\SCC(=O)N1CCOc1cccc(Br)c1

>  <viability>
85.5% (inactive)

$$$$
>  <molecule>
COC(=O)c1ccc(CSc2nc3c(c(=O)n2-c2ccc(Br)cc2)SCC3)o1

>  <viability>
80.9% (inactive)

$$$$
>  <molecule>
O=c1c2[nH]c3ccc(F)cc3c2ncn1CCN1CCN(Cc2ccccc2)CC1

>  <viability>
86.3% (inactive)

$$$$
>  <molecule>
COc1ccc(NS(=O)(=O)c2ccc(NS(=O)(=O)c3ccc(C)cc3)cc2)nn1

>  <viability>
92.9% (inactive)

$$$$
>  <molecule>
CCOC(=O)N1CCC(NC(=O)CSCc2nc(-c3sccc3C)oc2C)CC1

>  <viability>
90% (inactive)

$$$$
>  <molecule>
CC1CCCCN1CCn1cnc2c([nH]c3ccccc32)c1=O (stereo not given)

>  <viability>
88.1% (inactive)

$$$$
>  <molecule>
O=C(Nc1ccccc1C(=O)NC(Cc1c[nH]c2ccccc12)C(=O)O)c1ccco1 (stereo not given)

>  <viability>
102% (inactive)

$$$$
>  <molecule>
CCc1cccc(Nc2cc(C)nc3ncnn23)c1

>  <viability>
99.8% (inactive)

$$$$
